Assayed system: CCR4 (Homo sapiens)
Construct: host or cells: CHO-K1
Sequence (P51679 1-360): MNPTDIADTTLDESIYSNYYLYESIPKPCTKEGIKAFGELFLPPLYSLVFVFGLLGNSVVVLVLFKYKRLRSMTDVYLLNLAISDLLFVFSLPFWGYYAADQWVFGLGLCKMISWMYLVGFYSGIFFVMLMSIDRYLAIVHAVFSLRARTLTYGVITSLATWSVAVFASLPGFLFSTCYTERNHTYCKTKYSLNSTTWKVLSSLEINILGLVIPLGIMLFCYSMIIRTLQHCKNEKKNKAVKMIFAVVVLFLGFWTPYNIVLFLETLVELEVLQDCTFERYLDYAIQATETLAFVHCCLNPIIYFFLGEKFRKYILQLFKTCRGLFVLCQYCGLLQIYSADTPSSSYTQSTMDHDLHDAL
Experimental details: PathHunter eXpress CCR4 CHO-K1 β-Arrestin GPCR Assay, agonist format
Assay type: cell-based
Particulars: 13.9 nM
Measured Raw Data values are reported for all entries that follow.

Worked set:
Ordered residues	Raw Data
ACRAVHSLRCLTTCA [24-17-00-N001, bicyclic peptide ligand, TATA scaffold, from CCR4 cell-based selection]	23972
ACQTLCNTAEDIRCA [24-16-00-N001, bicyclic peptide ligand, TBMB scaffold, from CCR4 cell-based selection]	20756

// next entry
Exercise: Reported Raw Data for ACLNGCRNTNSQCA [24-11-00-N001, bicyclic peptide ligand, TATA scaffold, from CCR4 cell-based selection] : what is it?
Key: 22941

====

Assayed system: CCR4 (Homo sapiens, UniProt P51679)
Construct: host or cells: CHO-K1
Sequence (P51679 1-360): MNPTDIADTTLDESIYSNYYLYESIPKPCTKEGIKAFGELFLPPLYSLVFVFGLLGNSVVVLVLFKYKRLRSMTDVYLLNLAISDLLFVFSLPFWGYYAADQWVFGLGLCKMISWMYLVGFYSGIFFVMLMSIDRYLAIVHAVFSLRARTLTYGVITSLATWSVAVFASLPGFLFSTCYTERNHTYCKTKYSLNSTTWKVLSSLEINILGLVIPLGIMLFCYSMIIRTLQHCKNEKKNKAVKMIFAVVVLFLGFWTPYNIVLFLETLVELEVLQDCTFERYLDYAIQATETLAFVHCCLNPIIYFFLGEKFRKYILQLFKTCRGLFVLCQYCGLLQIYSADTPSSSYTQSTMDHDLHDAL
Experimental details: PathHunter eXpress CCR4 CHO-K1 β-Arrestin GPCR Assay, antagonist format with CCL22
Format: cell-based
Particulars: 1 nM CCL22, 0.6 uM
Experimental: The aim of the present experiment was to analyze if if these peptides are functional using a Discoverx Assay, the Beta-Arrestin recruitment assay, to identify agonism or antagonism in the selected peptides. Standard protocols used: • PathHunter® eXpress CCR4 CHO-K1 β-Arrestin GPCR Assay. 100 dp (1×96-well) The experiment was carried using the manufacturer instructions. We therefore used the assay in an antagonist format, using 10 nM CCL22. […]
Test readout: Raw Data

Ordered residues	Test readout	Value measured
ACPLMSSVNCTAGCA [24-13-00-N001, bicyclic peptide ligand, TBMB scaffold, from CCR4 cell-based selection]	Raw Data	229977
ACQLTCLTPARQPGCA [24-14-00-N001, bicyclic peptide ligand, TATA scaffold, from CCR4 cell-based selection]	Raw Data	200525

// next entry
Exercise: Reported Raw Data for ACQLTCLPPPRQPGCA [24-15-00-N001, bicyclic peptide ligand, TATA scaffold, from CCR4 cell-based selection] : what is it?
Key: 230668
